test details: Cmax in mouse at 2 mg/kg, po
Assay type: ADME, organism-based
Set-up: route oral, dose 2 mg/kg
run conditions: in vivo
readout: Cmax (µM)

{"columns": ["chem smiles", "recorded value"],
 "data": [
  ["COc1cc(C(=O)N[C@@H](c2ccccc2F)C(C)(C)O)ccc1-c1cn[nH]c1", 1.3]
]}

---

test details: Permeability of the compound at pH 7.4 by PAMPA
Type: ADME
run conditions: read-out: permeability
# note: exactly 20 ×10⁻⁶ cm/s is not below, so it is Not met; use Met for Papp strictly under it

{"columns": ["chem smiles", "category label"],
 "data": [
  ["COc1cc(C(=O)N[C@H](CO)c2ccccc2)ccc1-c1cn[nH]c1", "Met"],
  ["COc1cc(C(=O)N[C@@H](c2ccccc2F)C(C)(C)O)ccc1-c1cn[nH]c1", "Not met"],
  ["COc1cc(NC(=O)[C@H](N)CCc2ccccc2)ccc1-c1cn[nH]c1", "Not met"],
  ["COc1cc(C(=O)N[C@H](C)c2c(F)cccc2F)ccc1-c1cn[nH]c1", "Not met"]
]}

---

# reported Cmax; entries follow
test details: Cmax in mouse at 10 mg/kg, po
Format: ADME, organism-based
Design: route oral, dose 10 mg/kg
run conditions: in vivo
readout: Cmax (µM)

{"columns": ["chem smiles", "recorded value"],
 "data": [
  ["COc1cc(NC(=O)[C@H](N)CCc2ccccc2)ccc1-c1cn[nH]c1", 28],
  ["COc1cc(C(=O)N[C@H](CO)c2ccccc2)ccc1-c1cn[nH]c1", 21],
  ["COc1cc(C(=O)N[C@H](C)c2c(F)cccc2F)ccc1-c1cn[nH]c1", 23],
  ["COc1cccc([C@@H](C)NC(=O)c2ccc(-c3cn[nH]c3)c(C)c2)c1", 12]
]}

---

test details: AUC in mouse at 10 mg/kg, po
Type: ADME, organism-based
Parameters: dose 10 mg/kg
run conditions: in vivo
readout: AUC (µM·h)

{"columns": ["chem smiles", "recorded value"],
 "data": [
  ["COc1cc(C(=O)N[C@H](CO)c2ccccc2)ccc1-c1cn[nH]c1", 90],
  ["COc1cc(NC(=O)[C@H](N)CCc2ccccc2)ccc1-c1cn[nH]c1", 140],
  ["COc1cccc([C@@H](C)NC(=O)c2ccc(-c3cn[nH]c3)c(C)c2)c1", 35],
  ["COc1cc(C(=O)N[C@H](C)c2c(F)cccc2F)ccc1-c1cn[nH]c1", 140]
]}

---

Collected remaining at 10 min, 0.5 µM values appear next to each entry.
test details: Metabolic stability in human liver microsomes assessed as parent compound remaining at 0.5 uM after 10 mins
Type: ADME, Microsome
run conditions: read-out: Stabilty

{"columns": ["chem smiles", "remaining at 10 min, 0.5 µM (%)"],
 "data": [
  ["COc1cc(C(=O)N[C@@H](c2ccccc2F)C(C)(C)O)ccc1-c1cn[nH]c1", 92],
  ["COc1cc(C(=O)N[C@H](C)c2c(F)cccc2F)ccc1-c1cn[nH]c1", 79],
  ["CCc1cc(C(=O)N[C@H](C)c2cccc(OC)c2)ccc1-c1cn[nH]c1", 38],
  ["COc1cccc([C@@H](C)NC(=O)c2ccc(-c3cn[nH]c3)cc2OC)c1", 49],
  ["COc1cccc([C@@H](C)NC(=O)c2ccc(-c3cn[nH]c3)c(C)c2)c1", 74]
]}
